Test: Acute toxicity, various dosage pathways, 7-day lethality, LD50 by Litchfield-Wilcoxon
Format: in vivo, Wister rats
Settings: rat, in vivo, po; rats (male, female); Peroral; read-out: LD50 value (95% confidence limit)
measuredAttribute: LD50 at 168 h (mg/kg)

>>> df
                      structuresmilesstring  valuereported
0  COC1=C(OC)C(=O)C(CC=C(C)CCC=C(C)CCC=C(C)CCC=C(C)CCC=C(C)CCC=C(C)CCC=C(C)CCC=C(C)CCC=C(C)CCC=C(C)C)=C(C)C1=O           4000

----------
Test: Acute toxicity, various dosage pathways, 7-day lethality, LD50 by Litchfield-Wilcoxon
Format: in vivo, ICR-JCL mice
Settings: mouse, in vivo, im; mice (male, female); Intramuscular; read-out: LD50 value (95% confidence limit)
measuredAttribute: LD50 at 168 h (mg/kg)

>>> print(df.to_string())
                      structuresmilesstring  measuredattribute  valuereported
0  COC1=C(OC)C(=O)C(CC=C(C)CCC=C(C)CCC=C(C)CCC=C(C)CCC=C(C)CCC=C(C)CCC=C(C)CCC=C(C)CCC=C(C)CCC=C(C)C)=C(C)C1=O      LD50 at 168 h            500

----------
Assay: Acute toxicity, various dosage pathways, 7-day lethality, LD50 by Litchfield-Wilcoxon
Assay type: in vivo, ICR-JCL mice
Details: mouse, in vivo; mice (male, female); Intravenous; read-out: LD50 value (95% confidence limit)
measuredAttribute: LD50 at 168 h (mg/kg)

In [3]: df
Out[3]:
                      structuresmilesstring  measuredattribute  readoutunit  valuereported
0  COC1=C(OC)C(=O)C(CC=C(C)CCC=C(C)CCC=C(C)CCC=C(C)CCC=C(C)CCC=C(C)CCC=C(C)CCC=C(C)CCC=C(C)CCC=C(C)C)=C(C)C1=O      LD50 at 168 h        mg/kg            250

----------
Experiment: Acute toxicity, various dosage pathways, 7-day lethality, LD50 by Litchfield-Wilcoxon
Type: in vivo, ICR-JCL mice
Conditions: mouse, in vivo, po; mice (male, female); Peroral; read-out: LD50 value (95% confidence limit)
measuredAttribute: LD50 at 168 h (mg/kg)

In [3]: df
Out[3]:
                      structuresmilesstring  valuereported
0  COC1=C(OC)C(=O)C(CC=C(C)CCC=C(C)CCC=C(C)CCC=C(C)CCC=C(C)CCC=C(C)CCC=C(C)CCC=C(C)CCC=C(C)CCC=C(C)C)=C(C)C1=O           4000

----------
Assay: Acute toxicity, various dosage pathways, 7-day lethality, LD50 by Litchfield-Wilcoxon
Assay type: in vivo, ICR-JCL mice
Conditions: mouse, in vivo, ip; mice (male, female); Intra-abdominal; read-out: LD50 value (95% confidence limit)
measuredAttribute: LD50 at 168 h (mg/kg)

In [3]: df
Out[3]:
                      structuresmilesstring  readoutunit  valuereported
0  COC1=C(OC)C(=O)C(CC=C(C)CCC=C(C)CCC=C(C)CCC=C(C)CCC=C(C)CCC=C(C)CCC=C(C)CCC=C(C)CCC=C(C)CCC=C(C)C)=C(C)C1=O        mg/kg           1500
